assay-details: Mean serum concentrations in neonatal piglets after intramuscular or oral administration
Assay type: in vivo
reported-conditions: pig, im, i.m. 50 mg/kg, 4hr
parameter-measured: concentration at 4 h

For record CCCCC(=O)C=C(C)CC1OCC(CC2OC2C(C)C(C)O)C(O)C1O (stereo not shown) [Example 3] the listed concentration at 4 h is < 70 ng/mL

----------
assay-details: Mean serum concentrations in neonatal piglets after intramuscular or oral administration
Assay type: in vivo
reported-conditions: pig, po, p.o. 50 mg/kg, 10'
parameter-measured: concentration at 10 min (ng/mL)
The answer is to be given in ng/mL; state only the numeric part.

For record CCCCC(=O)C=C(C)CC1OCC(CC2OC2C(C)C(C)O)C(O)C1O (stereo not shown) [Example 3] the listed concentration at 10 min is 3100

----------
assay-details: Mouse blood levels of Example 3 following oral and subcutaneous administration
Assay type: in vivo, albino male mice (strain OLAC: MF-1)
reported-conditions: sc, subcutaneous 50 mg/kg, 45 min, read-out: blood conc.
Protocol: Mouse blood levels of Example 3 following its oral and subcutaneous administration Blood levels were assessed in albino male mice (strain OLAC: MF-1, 18-22 g). The dose was 50 mg/kg administered in a 10% ethanol solution orally and subcutaneously. The mice were killed at intervals up to 90 min and the blood assayed microbiologically using B. subtilis ATCC 6633 in TSA at pH 8.0.
parameter-measured: concentration at 0.75 h

For record CCCCC(=O)C=C(C)CC1OCC(CC2OC2C(C)C(C)O)C(O)C1O (stereo not shown) the listed concentration at 0.75 h is < 1.5 µg/mL

----------
assay-details: Mouse blood levels of Example 3 following oral and subcutaneous administration
Assay type: in vivo, albino male mice (strain OLAC: MF-1)
reported-conditions: sc, subcutaneous 50 mg/kg, 90 min, read-out: blood conc.
parameter-measured: concentration at 1.5 h

For record CCCCC(=O)C=C(C)CC1OCC(CC2OC2C(C)C(C)O)C(O)C1O (stereo not shown) [Example 3] the listed concentration at 1.5 h is < 1500 ng/mL

----------
assay-details: Mouse blood levels of Example 1 following oral and subcutaneous administration
Assay type: in vivo, albino male mice
reported-conditions: oral 50 mg/kg, 10 min, read-out: blood conc.
parameter-measured: concentration at 10 min (ng/mL)
The answer is to be given in ng/mL; state only the numeric part.

For record CC(=O)C=C(C)CC1OCC(CC2OC2C(C)C(C)O)C(O)C1O (stereo not shown) [Example 1] the listed concentration at 10 min is 7700

----------
assay-details: Mouse blood levels of Example 1 following oral and subcutaneous administration
Format: in vivo, albino male mice
reported-conditions: sc, subcutaneous 50 mg/kg, 240 min, read-out: blood conc.
parameter-measured: concentration at 4 h

For record CC(=O)C=C(C)CC1OCC(CC2OC2C(C)C(C)O)C(O)C1O (stereo not shown) the listed concentration at 4 h is < 3000 ng/mL

----------
assay-details: Mean serum concentrations in milk weaned piglets after oral administration
Format: in vivo
reported-conditions: pig, p.o. 50 mg/kg, 3 hr
parameter-measured: concentration at 3 h (ng/mL)
The answer is to be given in ng/mL; state only the numeric part.

For record CCCCC(=O)C=C(C)CC1OCC(CC2OC2C(C)C(C)O)C(O)C1O (stereo not shown) the listed concentration at 3 h is 370
